assay: Toxicity against mouse 3T3 cells by resazurin assay; type: cell-based; conditions: NIH3T3 cells
pEC50: −log10 of the molar value.
I'd be grateful if you could share measured pEC50 for these entries.

pEC50 lookup needed for COC(=O)c1ccc(NCc2cncn2Cc2ccc(Br)cc2)cc1-c1ccccc1 , thanks.
< 5.00

Consider next the molecule COC(=O)c1ccc(NCc2cncn2Cc2ccc(-c3ccccc3)cc2)cc1-c1ccccc1 in the same way.
< 6.00

Consider next the molecule c1ccc(-c2ccc(Cn3cncc3CNc3cccc(-c4ccccc4)c3)cc2)cc1 in the same way.
5.00

Consider next the molecule COC(=O)c1ccc(NCc2cncn2Cc2cccc(N)c2)cc1-c1ccccc1 in the same way.
< 5.00

Consider next the molecule Nc1cc(-c2ccccc2)ccc1Cn1cncc1CNc1ccc(-c2cncs2)c(-c2ccccc2)c1 in the same way.
< 6.00

Consider next the molecule COC(=O)c1ccc(NCc2cncn2Cc2ccccc2[N+](=O)[O-])cc1-c1ccccc1 in the same way.
5.00

Consider next the molecule c1ccc(-c2ccc(Cn3cncc3CNc3ccc(N4CCCCC4)c(-c4ccccc4)c3)cc2)cc1 in the same way.
< 6.00

Consider next the molecule Clc1ccc(NCc2cncn2Cc2ccc(-c3ccccc3)cc2)cc1-c1ccccc1 in the same way.
< 6.00

Consider next the molecule Cc1cccc(-c2cccc(NCc3cncn3Cc3ccccc3)c2)c1C in the same way.
< 6.00

Consider next the molecule CS(=O)(=O)c1ccc(Cn2cncc2CNc2ccc(-c3nc4ccccc4s3)c(-c3ccccc3)c2)cc1 in the same way.
< 6.00

Consider next the molecule c1ccc(-c2ccc(Cn3cncc3CNc3ccc(-c4cc5ccccc5o4)c(-c4ccccc4)c3)cc2)cc1 in the same way.
< 5.00

Consider next the molecule CN(C)C(=O)c1ccc(NCc2cncn2Cc2ccc(-c3ccccc3)cc2)cc1-c1ccccc1 in the same way.
< 6.00

Consider next the molecule COC(=O)c1ccc(NCc2cncn2Cc2ccccc2Cl)cc1-c1ccccc1 in the same way.
5.00

Consider next the molecule Clc1ccc(Cn2cncc2CNc2ccc(-c3nc4ccccc4s3)c(-c3ccccc3)c2)cc1 in the same way.
< 6.00

Consider next the molecule COc1ccc(NCc2cncn2Cc2ccc(-c3ccccc3)cc2N)cc1-c1ccccc1 in the same way.
< 6.00

Consider next the molecule Cc1ccccc1-c1cccc(NCc2cncn2Cc2ccccc2)c1 in the same way.
< 6.00

Consider next the molecule c1ccc(-c2ccc(Cn3cncc3CNc3ccc(-c4cncs4)c(-c4ccccc4)c3)cc2)cc1 in the same way.
< 6.00

Consider next the molecule c1ccc(-c2ccc(Cn3cncc3CNc3ccc(-c4ccc[nH]4)c(-c4ccccc4)c3)cc2)cc1 in the same way.
< 5.00

Consider next the molecule CC(C)OC(=O)c1ccc(NCc2cncn2Cc2ccc(-c3ccccc3)cc2)cc1-c1ccccc1 in the same way.
< 5.00

Consider next the molecule Fc1ccc(Cn2cncc2CNc2ccc(-c3nc4ccccc4s3)c(-c3ccccc3)c2)c(F)c1 in the same way.
< 6.00
